# TEST: MTT cell viability assay (Tables 5 and 7)
# REPORTED_CONDITIONS: african green monkey, cos-7 cells
OBSERVABLE: cytotoxicity at 4 h, 100 µM (%)
The reply should be a number in %, with the unit left off.

Query: Please report cytotoxicity at 4 h, 100 µM for the following compound: C/C=C/C/C=C/CCC(=O)[C@H]1O[C@H]1C(N)=O [cerulenin, reference compound]
Reply: 0

---

# ASSAY_SYSTEM: HIV-2 PR (Human immunodeficiency virus type 2 subtype A)
# Construct: HIV-2 PR (at a final concentration of 30 μg/mL); made in house
# Sequence (P04584 514-612 limits assumed): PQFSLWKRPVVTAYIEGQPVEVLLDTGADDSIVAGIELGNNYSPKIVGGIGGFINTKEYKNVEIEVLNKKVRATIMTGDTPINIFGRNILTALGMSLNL
# TEST: biochemical
# Format: biochemical
# REPORTED_CONDITIONS: pH 8; maximum inactivation rate; read-out: Vinact (min^-1 × 10^3) HIV-2 (converted)
Could you label it true (1) if measured kinact is 0.01 min⁻¹ or higher, and false (0) otherwise?

Reference set (2 entries):
COMPOUND	CATEGORY_LABEL
O=C(/C=C/C[N+]1([O-])CCC(O)(c2ccc(Cl)cc2)CC1)c1ccc(F)cc1 (stereo not drawn) [UCSF115]	false (0)
O=[N+]([O-])c1ccc(OCC2CO2)cc1 (stereo not drawn) [EPNP, 1,2-epoxy-3-(p-nitrophenoxy)-propane, reference compound]	true (1)

Query: Decide: kinact of OC1(c2ccc(Cl)cc2)CCN(CC#CC2(c3ccccc3)CO2)CC1 (stereo not drawn) [UCSF84] >= 0.01 min⁻¹?
Reply: true (1)

Query: Decide: kinact of O=C(C=C(CN1CCC(O)(c2ccc(Cl)cc2)CC1)SCCO)c1ccccc1 [UCSF178] >= 0.01 min⁻¹?
Reply: false (0)

Query: Decide: kinact of O=C(C#CCN1CCC(O)(c2ccc(Cl)cc2)CC1)c1ccccc1 [UCSF86] >= 0.01 min⁻¹?
Reply: false (0)

Just for reference, patent US5583000A is where these values come from.
